Kindly state Emax for each of the entries shown.
EXPERIMENTAL SYSTEM: human GR (Homo sapiens, UniProt P04150)
Construct: U937 cells contain an endogenous glucocorticoid receptor (GR); endogenous in cells; host or cells: U937 cells stably transfected with the TNF-alpha promoter/beta-lactamase reporter
Sequence (P04150 1-777): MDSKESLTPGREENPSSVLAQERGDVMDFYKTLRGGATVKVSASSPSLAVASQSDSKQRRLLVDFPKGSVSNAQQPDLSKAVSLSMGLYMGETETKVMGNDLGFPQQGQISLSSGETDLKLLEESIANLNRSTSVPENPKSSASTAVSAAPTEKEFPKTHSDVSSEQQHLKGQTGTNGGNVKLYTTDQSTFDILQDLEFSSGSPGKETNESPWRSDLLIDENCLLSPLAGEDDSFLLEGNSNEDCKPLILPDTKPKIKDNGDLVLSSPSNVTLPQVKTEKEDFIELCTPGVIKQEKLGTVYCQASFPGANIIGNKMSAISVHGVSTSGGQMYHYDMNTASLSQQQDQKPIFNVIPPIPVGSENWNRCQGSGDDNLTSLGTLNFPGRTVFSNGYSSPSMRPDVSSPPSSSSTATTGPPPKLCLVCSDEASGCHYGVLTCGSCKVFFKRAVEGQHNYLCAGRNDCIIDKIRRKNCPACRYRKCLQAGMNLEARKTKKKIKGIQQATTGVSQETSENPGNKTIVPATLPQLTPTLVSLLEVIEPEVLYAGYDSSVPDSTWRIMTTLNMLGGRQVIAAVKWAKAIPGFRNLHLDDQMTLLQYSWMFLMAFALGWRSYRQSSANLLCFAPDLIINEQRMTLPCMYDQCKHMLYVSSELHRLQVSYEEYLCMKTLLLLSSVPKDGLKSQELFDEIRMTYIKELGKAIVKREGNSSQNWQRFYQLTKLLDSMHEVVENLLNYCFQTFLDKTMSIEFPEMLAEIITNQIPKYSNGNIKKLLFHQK
PROTOCOL NOTES: Transrepression Assay (GITAR), TNFα-β-lactamase reporter gene in U937 cells
Format: cell-based
TEST PARAMETERS: U-937, U937 cells; activity repressed by 100 nM dexamethasone = 100%; Table 1; read-out: Transrepression U937 Cells GITAR Emax
From the text: Transrepression Assay (GITAR) This assay assesses the ability of test compounds to control transcription from the TNFα-β-lactamase reporter gene in U937 cells, a human myelomonocytic leukemia cell line that naturally expresses the human GR. The assay measures compound dependent-repression of the TNFa promoter linked to a reporter gene. The human U937 cells that had been stablely transfected with the TNF-α promoter driving β-lactamase are used for this assay. […]
Please respond with the number in % and leave the unit unwritten.

Notebook: pull reported Emax for human GR (Homo sapiens, UniProt P04150), entry C[C@]12Cc3cnn(-c4ccc(F)cc4)c3C=C1CC[C@@H]2C(=O)NCc1ccc(Cl)cc1Cl
17

Notebook: pull reported Emax for human GR (Homo sapiens, UniProt P04150), entry CN(CCOc1ccccc1)C(=O)[C@H]1CCC2=Cc3c(cnn3-c3ccc(F)cc3)C[C@@]21C
22.8

Notebook: pull reported Emax for human GR (Homo sapiens, UniProt P04150), entry Cc1ccc(CN(CCO)C(=O)[C@H]2CCC3=Cc4c(cnn4-c4ccc(F)cc4)C[C@@]32C)cc1F
55.8

Notebook: pull reported Emax for human GR (Homo sapiens, UniProt P04150), entry C[C@]12Cc3cnn(-c4ccc(F)cc4)c3C=C1CC[C@@H]2C(=O)N(CCC#N)CCC#N
28

* * *

EXPERIMENTAL SYSTEM: UniProt:P04150
Sequence (P04150 1-777): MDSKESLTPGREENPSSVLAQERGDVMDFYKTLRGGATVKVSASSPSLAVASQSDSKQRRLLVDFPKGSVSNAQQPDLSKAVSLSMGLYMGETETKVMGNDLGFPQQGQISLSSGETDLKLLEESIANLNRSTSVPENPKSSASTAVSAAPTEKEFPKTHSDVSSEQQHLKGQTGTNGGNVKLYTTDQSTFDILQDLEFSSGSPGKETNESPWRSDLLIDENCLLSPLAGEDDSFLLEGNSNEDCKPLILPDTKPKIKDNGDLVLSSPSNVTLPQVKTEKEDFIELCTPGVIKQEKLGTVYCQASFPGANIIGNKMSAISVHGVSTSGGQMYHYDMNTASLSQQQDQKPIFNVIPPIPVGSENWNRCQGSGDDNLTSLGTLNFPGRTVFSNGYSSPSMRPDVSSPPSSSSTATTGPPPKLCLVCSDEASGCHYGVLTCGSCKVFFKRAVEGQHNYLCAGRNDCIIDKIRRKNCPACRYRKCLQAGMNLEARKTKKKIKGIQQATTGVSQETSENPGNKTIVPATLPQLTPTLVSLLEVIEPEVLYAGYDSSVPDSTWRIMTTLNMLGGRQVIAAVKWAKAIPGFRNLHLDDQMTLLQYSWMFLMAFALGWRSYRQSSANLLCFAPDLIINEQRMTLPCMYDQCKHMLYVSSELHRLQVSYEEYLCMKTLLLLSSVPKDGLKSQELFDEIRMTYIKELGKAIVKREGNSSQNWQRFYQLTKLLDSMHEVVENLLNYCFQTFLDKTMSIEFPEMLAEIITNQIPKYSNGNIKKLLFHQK
PROTOCOL NOTES: Ligand binding assay (GR BIND), 3H-dexamethasone displacement in MDA-MB-453 cell lysate
TEST PARAMETERS: GR BIND Ki, Table 1
Kindly state log10(Ki) for each of the entries shown.
In plain terms, each number is the log10 of measured Ki in nM.

May I ask what log10(Ki) has been recorded for CN(C(=O)[C@H]1CCC2=Cc3c(cnn3-c3ccc(F)cc3)C[C@@]21C)C1CCCCC1 ?
1.37

May I ask what log10(Ki) has been recorded for CCN(CCC(F)(F)F)C(=O)[C@H]1CCC2=Cc3c(cnn3-c3ccc(F)cc3)C[C@@]21C ?
0.65

May I ask what log10(Ki) has been recorded for CCCN(CC1CCCO1)C(=O)[C@H]1CCC2=Cc3c(cnn3-c3ccc(F)cc3)C[C@@]21C (stereo partly shown) [Compound 62] ?
0.84

May I ask what log10(Ki) has been recorded for C[C@]12Cc3cnn(-c4ccc(F)cc4)c3C=C1CC[C@@H]2C(=O)NC(Cc1ccccc1)c1ccccc1 (stereo partly shown) ?
1.10

May I ask what log10(Ki) has been recorded for C[C@]12Cc3cnn(-c4ccc(F)cc4)c3C=C1CC[C@@H]2C(=O)N1CCC(C(F)(F)F)CC1 ?
1.33

May I ask what log10(Ki) has been recorded for CN(CC(O)C(F)(F)F)C(=O)[C@H]1CCC2=Cc3c(cnn3-c3ccccc3)C[C@@]21C (stereo partly shown) [Compound 75] ?
0.88

May I ask what log10(Ki) has been recorded for CCN(CC)C(=O)[C@H]1CCC2=Cc3c(cnn3-c3ccc(F)cc3)C[C@@]21C ?
1.73

May I ask what log10(Ki) has been recorded for CCCN(CC)C(=O)[C@H]1CCC2=Cc3c(cnn3-c3ccc(F)cc3)C[C@@]21C ?
0.40

May I ask what log10(Ki) has been recorded for CCCCN(CC(C)O)C(=O)[C@H]1CCC2=Cc3c(cnn3-c3ccc(F)cc3)C[C@@]21C (stereo partly shown) ?
0.71

May I ask what log10(Ki) has been recorded for C[C@H](O)CN(CCc1ccccc1F)C(=O)[C@H]1CCC2=Cc3c(cnn3-c3ccc(F)cc3)C[C@@]21C ?
0.73

May I ask what log10(Ki) has been recorded for Cc1ccc(CN(CCO)C(=O)[C@H]2CCC3=Cc4c(cnn4-c4ccc(F)cc4)C[C@@]32C)cc1F ?
1.14

May I ask what log10(Ki) has been recorded for C[C@]12Cc3cnn(-c4ccc(F)cc4)c3C=C1CC[C@@H]2C(=O)N(CC1CCC1)CC1CCCO1 (stereo partly shown) ?
0.28

May I ask what log10(Ki) has been recorded for C[C@]12Cc3cnn(-c4ccc(F)cc4)c3C=C1CC[C@@H]2C(=O)N(CCc1ccccc1F)CC(O)C(F)(F)F (stereo partly shown) [Compound 84] ?
-0.10

May I ask what log10(Ki) has been recorded for CCCN(CCC)C(=O)[C@H]1CCC2=Cc3c(cnn3-c3ccc(F)cc3)C[C@@]21C ?
0.23

May I ask what log10(Ki) has been recorded for CC(C)CN(C)C(=O)[C@H]1CCC2=Cc3c(cnn3-c3ccc(F)cc3)C[C@@]21C ?
1.51

May I ask what log10(Ki) has been recorded for Cc1ccc(CCN(CC(O)C(F)(F)F)C(=O)[C@H]2CCC3=Cc4c(cnn4-c4ccc(F)cc4)C[C@@]32C)cc1 (stereo partly shown) ?
-0.05

May I ask what log10(Ki) has been recorded for C[C@]12Cc3cnn(-c4ccc(F)cc4)c3C=C1CC[C@@H]2C(=O)N1CCCC(CCc2ccccc2)C1 (stereo partly shown) ?
0.49

May I ask what log10(Ki) has been recorded for CN(CC(O)C(F)(F)F)C(=O)[C@H]1CCC2=Cc3c(cnn3-c3ccccc3)C[C@@]21C (stereo partly shown) [Compound 74] ?
1.03

May I ask what log10(Ki) has been recorded for CCN(CC(O)C(F)(F)F)C(=O)[C@H]1CCC2=Cc3c(cnn3-c3ccccc3)C[C@@]21C (stereo partly shown) [Compound 77] ?
0.99

May I ask what log10(Ki) has been recorded for CCCN(CC1CCCO1)C(=O)[C@H]1CCC2=Cc3c(cnn3-c3ccc(F)cc3)C[C@@]21C (stereo partly shown) [Compound 63] ?
0.78

May I ask what log10(Ki) has been recorded for CO[C@H](C)CN(C)C(=O)[C@H]1CCC2=Cc3c(cnn3-c3ccc(F)cc3)C[C@@]21C ?
2.08

May I ask what log10(Ki) has been recorded for CCCN(CCC(F)(F)F)C(=O)[C@H]1CCC2=Cc3c(cnn3-c3ccc(F)cc3)C[C@@]21C ?
0.34
